tested on: K24384-001-R-PDC complex spheroid growth; test: Anticancer human tumor K24384-001-R-PDC patient-derived pancreatic adenocarcinoma cell line growth inhibition [AhR]; settings: second compound 10 µM; first compound 3.16 µM; stronger effect = lower value

{"molecule": "CC1(C)CCC(CN2CCN(c3ccc(C(=O)NS(=O)(=O)c4ccc(NCC5CCOCC5)c([N+](=O)[O-])c4)c(Oc4cnc5[nH]ccc5c4)c3)CC2)=C(c2ccc(Cl)cc2)C1 + CC(CO)NC(=O)c1cc(-c2ccc(Cl)cc2)nn(-c2cnn(C)c2)c1=O", "viability, T/C": "90.2%"}
{"molecule": "Nc1ccn(C2OC(CO)C(O)C2(F)F)c(=O)n1 (stereo not given) + CC(CO)NC(=O)c1cc(-c2ccc(Cl)cc2)nn(-c2cnn(C)c2)c1=O", "viability, T/C": "36%"}
{"molecule": "COc1cccc2c1C(=O)c1c(O)c3c(c(O)c1C2=O)CC(O)(C(=O)CO)CC3OC1CC(N)C(O)C(C)O1 (stereo not given) + Cc1cncc(-c2nc(NCCc3c[nH]c4ccccc34)c3ncn(C(C)C)c3n2)c1", "viability, T/C": "1.89%"}
{"molecule": "COc1ccc([C@@H](O)c2cc(-c3ncnc4cc(N5CCOCC5)ccc34)c(F)cc2Cl)nn1 + Cc1cncc(-c2nc(NCCc3c[nH]c4ccccc34)c3ncn(C(C)C)c3n2)c1", "viability, T/C": "9.55%"}
{"molecule": "CC(C)c1c(-c2ccccc2)nc2c(C#N)c[nH]n2c1=O + Cc1cncc(-c2nc(NCCc3c[nH]c4ccccc34)c3ncn(C(C)C)c3n2)c1", "viability, T/C": "7.71%"}

---

system: K24384-001-R-PDC complex spheroid growth; test: Anticancer human tumor K24384-001-R-PDC cell line growth inhibition [AhR]; conditions: second compound 1 µM; first compound 0.000949 µM; stronger effect = lower value;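 note: percent of DMSO vehicle-treated spheroid viability set as 100%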
readout.type: viability, T/C (%)

{"compound": "CC(C)CC(NC(=O)C(Cc1ccccc1)NC(=O)c1cnccn1)B(O)O (stereo not given) + Cc1cncc(-c2nc(NCCc3c[nH]c4ccccc34)c3ncn(C(C)C)c3n2)c1", "readout.type": "viability, T/C", "unit.name": "%", "result": 116}
{"compound": "CCc1c2c(nc3ccc(O)cc13)-c1cc3c(c(=O)n1C2)COC(=O)[C@]3(O)CC + Cc1ccccc1N=Nc1ccc(NC(=O)c2ccnn2C)c(C)c1", "readout.type": "viability, T/C", "unit.name": "%", "result": 77.4}
{"compound": "Nc1ncn(C2CC(O)C(CO)S2)c(=O)n1 (stereo not given) + CC(CO)NC(=O)c1cc(-c2ccc(Cl)cc2)nn(-c2cnn(C)c2)c1=O", "readout.type": "viability, T/C", "unit.name": "%", "result": 137}
{"compound": "Nc1ncn(C2CC(O)C(CO)S2)c(=O)n1 (stereo not given) + Cc1cncc(-c2nc(NCCc3c[nH]c4ccccc34)c3ncn(C(C)C)c3n2)c1", "readout.type": "viability, T/C", "unit.name": "%", "result": 173}
{"compound": "CCc1c2c(nc3ccc(O)cc13)-c1cc3c(c(=O)n1C2)COC(=O)[C@]3(O)CC + Cc1cncc(-c2nc(NCCc3c[nH]c4ccccc34)c3ncn(C(C)C)c3n2)c1", "readout.type": "viability, T/C", "unit.name": "%", "result": 76.9}

---

Reported viability, T/C is given for each of the following compounds.
test system: K24384-001-R-PDC complex spheroid growth; test: Anticancer human tumor K24384-001-R-PDC cell line growth inhibition [AhR]; settings: second compound 3.16 µM; first compound 0.000949 µM; stronger effect = lower value;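 note: percent of DMSO vehicle-treated spheroid viability set as 100%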
readout.type: viability, T/C

{"compound": "CCc1c2c(nc3ccc(O)cc13)-c1cc3c(c(=O)n1C2)COC(=O)[C@]3(O)CC + Cc1ccccc1N=Nc1ccc(NC(=O)c2ccnn2C)c(C)c1", "result": "73.3%"}
{"compound": "CC(C)CC(NC(=O)C(Cc1ccccc1)NC(=O)c1cnccn1)B(O)O (centres undefined) + Cc1cncc(-c2nc(NCCc3c[nH]c4ccccc34)c3ncn(C(C)C)c3n2)c1", "result": "83.9%"}
{"compound": "Nc1ncn(C2CC(O)C(CO)S2)c(=O)n1 (centres undefined) + Cc1ccccc1N=Nc1ccc(NC(=O)c2ccnn2C)c(C)c1", "result": "86.6%"}
{"compound": "CC(C)CC(NC(=O)C(Cc1ccccc1)NC(=O)c1cnccn1)B(O)O (centres undefined) + CC(CO)NC(=O)c1cc(-c2ccc(Cl)cc2)nn(-c2cnn(C)c2)c1=O", "result": "83.6%"}
{"compound": "CC(C)CC(NC(=O)C(Cc1ccccc1)NC(=O)c1cnccn1)B(O)O (centres undefined) + Cc1ccccc1N=Nc1ccc(NC(=O)c2ccnn2C)c(C)c1", "result": "83.9%"}
{"compound": "Nc1ncn(C2CC(O)C(CO)S2)c(=O)n1 (centres undefined) + CC(CO)NC(=O)c1cc(-c2ccc(Cl)cc2)nn(-c2cnn(C)c2)c1=O", "result": "87.3%"}
{"compound": "Nc1ncn(C2CC(O)C(CO)S2)c(=O)n1 (centres undefined) + Cc1cncc(-c2nc(NCCc3c[nH]c4ccccc34)c3ncn(C(C)C)c3n2)c1", "result": "28.2%"}
{"compound": "CCc1c2c(nc3ccc(O)cc13)-c1cc3c(c(=O)n1C2)COC(=O)[C@]3(O)CC + CC(CO)NC(=O)c1cc(-c2ccc(Cl)cc2)nn(-c2cnn(C)c2)c1=O", "result": "55.8%"}
{"compound": "CCc1c2c(nc3ccc(O)cc13)-c1cc3c(c(=O)n1C2)COC(=O)[C@]3(O)CC + Cc1cncc(-c2nc(NCCc3c[nH]c4ccccc34)c3ncn(C(C)C)c3n2)c1", "result": "60%"}

---

test system: K24384-001-R-PDC complex spheroid growth; test: Anticancer human tumor K24384-001-R-PDC cell line growth inhibition [AhR]; details: second compound 3.16 µM; first compound 0.3 µM; stronger effect = lower value;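 note: percent of DMSO vehicle-treated spheroid viability set as 100%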
The molecules listed here are annotated with their viability, T/C.

{"molecule": "O=C(C=Cn1cnc(-c2cc(C(F)(F)F)cc(C(F)(F)F)c2)n1)NNc1cnccn1 + CC(CO)NC(=O)c1cc(-c2ccc(Cl)cc2)nn(-c2cnn(C)c2)c1=O", "viability, T/C": "41.8%"}
{"molecule": "CCc1c2c(nc3ccc(O)cc13)-c1cc3c(c(=O)n1C2)COC(=O)[C@]3(O)CC + Cc1cncc(-c2nc(NCCc3c[nH]c4ccccc34)c3ncn(C(C)C)c3n2)c1", "viability, T/C": "13.9%"}
{"molecule": "Nc1ncn(C2CC(O)C(CO)S2)c(=O)n1 (stereo unspecified) + Cc1cncc(-c2nc(NCCc3c[nH]c4ccccc34)c3ncn(C(C)C)c3n2)c1", "viability, T/C": "27.4%"}
{"molecule": "Nc1ncn(C2CC(O)C(CO)S2)c(=O)n1 (stereo unspecified) + CC(CO)NC(=O)c1cc(-c2ccc(Cl)cc2)nn(-c2cnn(C)c2)c1=O", "viability, T/C": "76.2%"}
{"molecule": "CC(C)CC(NC(=O)C(Cc1ccccc1)NC(=O)c1cnccn1)B(O)O (stereo unspecified) + CC(CO)NC(=O)c1cc(-c2ccc(Cl)cc2)nn(-c2cnn(C)c2)c1=O", "viability, T/C": "0.31%"}
{"molecule": "CCc1c2c(nc3ccc(O)cc13)-c1cc3c(c(=O)n1C2)COC(=O)[C@]3(O)CC + CC(CO)NC(=O)c1cc(-c2ccc(Cl)cc2)nn(-c2cnn(C)c2)c1=O", "viability, T/C": "19.3%"}

---

system: K24384-001-R-PDC complex spheroid growth; assay: Anticancer human tumor K24384-001-R-PDC cell line growth inhibition [AhR]; details: second compound 0.316 µM; first compound 0.03 µM; stronger effect = lower value;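 note: percent of DMSO vehicle-treated spheroid viability set as 100%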
# note: boundary value 70% maps to 0.0; viability, T/C below it maps to 1.0

{"molecule": "CCc1c2c(nc3ccc(O)cc13)-c1cc3c(c(=O)n1C2)COC(=O)[C@]3(O)CC + Cc1ccccc1N=Nc1ccc(NC(=O)c2ccnn2C)c(C)c1", "answer.label": 1.0}
{"molecule": "O=C(C=Cn1cnc(-c2cc(C(F)(F)F)cc(C(F)(F)F)c2)n1)NNc1cnccn1 + CC(CO)NC(=O)c1cc(-c2ccc(Cl)cc2)nn(-c2cnn(C)c2)c1=O", "answer.label": 0.0}
{"molecule": "CCc1c2c(nc3ccc(O)cc13)-c1cc3c(c(=O)n1C2)COC(=O)[C@]3(O)CC + CC(CO)NC(=O)c1cc(-c2ccc(Cl)cc2)nn(-c2cnn(C)c2)c1=O", "answer.label": 1.0}
{"molecule": "Nc1ncn(C2CC(O)C(CO)S2)c(=O)n1 (centres undefined) + Cc1cncc(-c2nc(NCCc3c[nH]c4ccccc34)c3ncn(C(C)C)c3n2)c1", "answer.label": 0.0}
{"molecule": "CC(C)CC(NC(=O)C(Cc1ccccc1)NC(=O)c1cnccn1)B(O)O (centres undefined) + CC(CO)NC(=O)c1cc(-c2ccc(Cl)cc2)nn(-c2cnn(C)c2)c1=O", "answer.label": 1.0}
{"molecule": "Nc1ncn(C2CC(O)C(CO)S2)c(=O)n1 (centres undefined) + CC(CO)NC(=O)c1cc(-c2ccc(Cl)cc2)nn(-c2cnn(C)c2)c1=O", "answer.label": 0.0}
{"molecule": "CCN(c1cc(-c2ccc(CN3CCOCC3)cc2)cc(C(=O)NCc2c(C)cc(C)[nH]c2=O)c1C)C1CCOCC1 + Cc1ccccc1N=Nc1ccc(NC(=O)c2ccnn2C)c(C)c1", "answer.label": 0.0}
{"molecule": "O=C(C=Cn1cnc(-c2cc(C(F)(F)F)cc(C(F)(F)F)c2)n1)NNc1cnccn1 + Cc1cncc(-c2nc(NCCc3c[nH]c4ccccc34)c3ncn(C(C)C)c3n2)c1", "answer.label": 0.0}
{"molecule": "Nc1ncn(C2CC(O)C(CO)S2)c(=O)n1 (centres undefined) + Cc1ccccc1N=Nc1ccc(NC(=O)c2ccnn2C)c(C)c1", "answer.label": 1.0}
